Taken from patent US20260083751A1.

Biological target: AR-LBD PPI interactions with TIF2 and SRC1 coactivators (Homo sapiens, UniProt P10275)
Construct: AR-LBD amino acids 658-919 expressed as a fusion protein with Gal4-DBD; expressed in transfected cells; host or cells: HEK 293, transient co-transfection
Test: TIF2 and SRC1 mammalian 2-hybrid assays, results stated jointly
Format: cell-based
Conditions: IC50s in TIF2 and SRC-1 M2H assays (potency range in words), both M2H assays
Measurement Kind: IC50

Below are worked cases with known answers.
Cc1c(-c2ccc(F)cc2)[nH]c2ccc(CNC(=O)c3ccc(CO)o3)cc12: 1 to 10 µM
Cc1cccc2c(-c3ccc(O)c(F)c3)c[nH]c12: 10 to 100 µM

Read the next record carefully.
For the compound shown here, Cc1nc(N)cc(N2CCOc3c(O)cc(-c4ccccc4C)cc3C2)n1 , give the reported IC50.
1 to 10 µM

====

// reported IC50 for each item listed
Molecular target: AR-LBD / TIF2 box III LXXLL peptide (Homo sapiens)
Construct: The pET28a-AR-LBD (622-919) construct; made in house
Experiment: AR-LBD::TIF2 Box III LXXLL peptide binding AlphaScreen assay
Conditions: AlphaScreen; read-out: Inhibition DHT-induced TIF2 NR Box 3 LXXLL peptide binding to AR-LBD IC50

Below are worked cases with known answers.
CNC(=O)c1ccc(-c2c[nH]c3c(C)cccc23)cc1: > 100 µM
CC(=O)NCCC(=O)NCc1ccc2[nH]c(-c3ccccc3F)c(C)c2c1: 92 µM
Cc1ccccc1-c1cc(O)c2c(c1)CN(c1nccs1)CCO2: 21 to 83 µM
COc1cc(-c2ccc(C)s2)cc2c1OCCN(c1nc(C(N)=O)cs1)C2: > 100 µM
Cc1nc(N)cc(N2CCOc3c(O)cc(-c4ccccc4C)cc3C2)n1: 21 to 83 µM
Cc1nsc(NC(=O)N2CCC(Sc3ccccc3C)CC2)n1: 49.5 µM

Read the next record carefully.
For the molecule shown here, Cc1c(-c2ccccc2F)[nH]c2ccc(CNC(=O)CCc3cnccn3)cc12 , give the reported IC50.
> 100 µM

====

// reported pIC50 for each item listed
Tested on: UBE2C promoter-driven transcription in PC3-AR-V7-GFP cells
Assay: UBE2C promoter driven luciferase reporter assay in PC3-AR-V7-GFP cells
Assay type: cell-based
Conditions: 24 h, 24 h exposure; read-out: IC50 in UBE2C-Luc AR-V7 reporter assay (potency range in words)
pIC50: −log10 of the molar value.

Below are worked cases with known answers.
Cc1c(-c2ccccc2F)[nH]c2ccc(CNC(=O)CCc3cnccn3)cc12 [Compound S3-12]: 4.00 to 5.00
Cc1c(-c2ccc(F)cc2)[nH]c2ccc(CNC(=O)c3ccc(CO)o3)cc12 [Compound S3-15]: 4.00 to 5.00
Cc1cccc2c(-c3ccc(O)c(F)c3)c[nH]c12 [Compound S3-17]: 4.00 to 5.00

For the compound shown here, Cc1c(-c2ccccc2F)[nH]c2ccc(CNC(=O)c3ccc(CO)o3)cc12 [Compound S3-14] , give the reported pIC50.
4.00 to 5.00

Field entry: Cc1c(-c2ccccc2F)[nH]c2ccc(CNC(=O)CCc3cn[nH]c3)cc12 [Compound S3-11]
4.00 to 5.00

====

Biological target: AR-TIF2 PPI (Homo sapiens)
Construct: AR-LBD residues (662-919) were incorporated into one biosensor; expressed in transfected cells; host or cells: U-2 OS osteosarcoma cells, coinfected with recombinant adenoviruses
Sequence (P10275 662-919): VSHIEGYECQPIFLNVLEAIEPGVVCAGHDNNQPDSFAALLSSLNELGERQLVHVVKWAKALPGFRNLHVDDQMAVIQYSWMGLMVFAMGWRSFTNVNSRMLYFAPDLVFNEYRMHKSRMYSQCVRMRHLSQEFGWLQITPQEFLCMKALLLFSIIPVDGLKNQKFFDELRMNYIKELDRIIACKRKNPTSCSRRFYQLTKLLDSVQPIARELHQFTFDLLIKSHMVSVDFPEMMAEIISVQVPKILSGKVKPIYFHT
Test: AR-TIF2 PPIB HCS assay: inhibition of DHT-induced AR-TIF2 PPI formation (compound then DHT)
Format: cell-based
Conditions: U-2 OS cells, 25 nM DHT; read-out: Inhibition DHT-induced AR-TIF2 PPI Formation IC50
// reported IC50 for each item listed

Below are worked cases with known answers.
Cc1nsc(NC(=O)N2CCC(F)CC2)n1 [Compound S2-10]: > 100 µM
CNC(=O)c1ccc(-c2c[nH]c3c(C)cccc23)cc1 [Compound S3-21]: ~36 µM
Cc1nsc(NC(=O)N2CCC(CN3CCCC3=O)CC2)n1 [Compound S2-9]: > 100 µM
Cc1ccccc1-c1cc(O)c2c(c1)CN(c1nc(C(N)=O)cs1)CCO2 [Compound S1-1]: 5.38 µM
Cc1nsc(NC(=O)N2CCC(Cn3ccnc3C)CC2)n1 [Compound S2-8]: > 100 µM
Cc1nsc(NC(=O)N2CCC(Sc3ccccc3C)CC2)n1 [Compound S2-6]: 0.62 µM
Cc1c(-c2ccccc2F)[nH]c2ccc(CNC(=O)CCc3cn[nH]c3)cc12 [Compound S3-11]: 3.11 µM
Cc1nsc(NC(=O)N2CCC(Cn3ccnc3)CC2)n1 [Compound S2-7]: > 100 µM

For the molecule shown here, Cc1ccccc1-c1cc(O)c2c(c1)CN(c1cc(N)ncn1)CCO2 [Compound S1-4] , give the reported IC50.
> 100 µM

====

Experiment: Cytotoxicity counter screens to the reporter assays
Assay type: cell-based
Details: counter screens to M2H, PSA-Luc, AR-V7 reporters; read-out: IC50 in cytotoxicity counter screen
Measurement Kind: IC50 (µM)
Your answer is read as µM, so omit the unit and give the number.

For the molecule shown here, Cc1nc(N)cc(N2CCOc3c(O)cc(-c4ccccc4C)cc3C2)n1 , give the reported IC50.
45.6

====

Target: AR-TIF2 PPI (Homo sapiens, UniProt P10275)
Construct: AR-LBD residues (662-919) were incorporated into one biosensor; expressed in transfected cells; host or cells: U-2 OS osteosarcoma cells, coinfected with recombinant adenoviruses
Sequence (P10275 662-919): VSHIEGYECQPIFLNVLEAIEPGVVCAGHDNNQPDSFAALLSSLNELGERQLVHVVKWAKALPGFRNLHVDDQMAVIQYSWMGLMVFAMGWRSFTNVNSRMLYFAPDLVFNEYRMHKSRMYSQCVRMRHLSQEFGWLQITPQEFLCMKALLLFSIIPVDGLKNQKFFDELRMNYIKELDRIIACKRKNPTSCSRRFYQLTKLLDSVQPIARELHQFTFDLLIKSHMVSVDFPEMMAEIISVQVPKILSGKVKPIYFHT
Assay: AR-TIF2 PPIB HCS assay: disruption of preformed DHT-induced AR-TIF2 PPI complexes (DHT then compound)
Assay type: cell-based
Conditions: DHT then compound; U-2 OS cells; read-out: D then C IC50
Measurement Kind: IC50 (µM)
Your answer is read as µM, so omit the unit and give the number.

Return IC50 measured with AR-TIF2 PPI (Homo sapiens, UniProt P10275) given this molecule: CC(=O)NCCC(=O)NCc1ccc2[nH]c(-c3ccccc3F)c(C)c2c1
37.6

Field entry: Cc1cccc2c(-c3ccc(O)c(F)c3)c[nH]c12
8.8

Field entry: Cc1c(-c2ccccc2F)[nH]c2ccc(CNC(=O)CCc3cnccn3)cc12
24.7

Field entry: Cc1nsc(NC(=O)N2CCC(Sc3ccccc3C)CC2)n1
5.8

Field entry: Cc1cccc2c(-c3ccc(Cl)c(C(N)=O)c3)c[nH]c12
46.2

Field entry: Cc1ccccc1-c1cc(O)c2c(c1)CN(c1nccs1)CCO2
41.8

Field entry: Cc1nc(N)cc(N2CCOc3c(O)cc(-c4ccccc4C)cc3C2)n1
63

Field entry: Cc1c(-c2ccccc2F)[nH]c2ccc(CNC(=O)c3ccc(CO)o3)cc12
16

Field entry: Cc1c(-c2ccc(F)cc2)[nH]c2ccc(CNC(=O)c3ccc(CO)o3)cc12
30.6

Field entry: Cc1ccc2[nH]cc(-c3cc(CN)ccc3F)c2c1
71.5

Field entry: Cc1cccc2c(-c3cccc(C(N)=O)n3)c[nH]c12
26

====

// reported IC50 for each item listed
System: AR-V7 directed transcriptional activation in PC3-AR-V7-EGFP cells
Test: AR-V7 driven PSA6.1-Luc and UBE2C-Luc reporter assays, results stated jointly
Assay type: cell-based
Details: both reporters; read-out: IC50s, both PSA6-6.1-Luc and UBE2C-Luc reporters in PC3-AR-V7-EGFP cells (potency range in words)

Cc1nc(N)cc(N2CCOc3c(O)cc(-c4ccccc4C)cc3C2)n1: 10 to 100 µM

Read the next record carefully.
For the compound shown here, Cc1ccccc1-c1cc(O)c2c(c1)CN(c1nc(C(N)=O)cs1)CCO2 , give the reported IC50.
10 to 100 µM

====

Biological target: AR-LBD PPI interactions with TIF2 and SRC1 coactivators (Homo sapiens, UniProt P10275)
Construct: AR-LBD amino acids 658-919 expressed as a fusion protein with Gal4-DBD; expressed in transfected cells; host or cells: HEK 293, transient co-transfection
Test: TIF2 and SRC1 mammalian 2-hybrid assays, results stated jointly
Format: cell-based
Conditions: IC50s in TIF2 and SRC-1 M2H assays (potency range in words), both M2H assays
// reported IC50 for each item listed

Below are worked cases with known answers.
Cc1ccccc1-c1cc(O)c2c(c1)CN(c1nccs1)CCO2 [Compound S1-3]: 1 to 10 µM
Cc1c(-c2ccccc2F)[nH]c2ccc(CNC(=O)CCc3cn[nH]c3)cc12 [Compound S3-11]: 1 to 10 µM
Cc1nsc(NC(=O)N2CCC(Sc3ccccc3C)CC2)n1 [Compound S2-6]: < 1 µM
Cc1c(-c2ccccc2F)[nH]c2ccc(CNC(=O)CCc3cnccn3)cc12 [Compound S3-12]: 1 to 10 µM

For the molecule shown here, CNC(=O)c1ccc(-c2c[nH]c3c(C)cccc23)cc1 [Compound S3-21] , give the reported IC50.
10 to 100 µM

Field entry: COc1cc(-c2ccc(C)s2)cc2c1OCCN(c1nc(C(N)=O)cs1)C2 [Compound S1-5]
10 to 100 µM

Field entry: CC(=O)NCCC(=O)NCc1ccc2[nH]c(-c3ccccc3F)c(C)c2c1 [Compound S3-13]
10 to 100 µM

Field entry: Cc1ccccc1-c1cc(O)c2c(c1)CN(c1nc(C(N)=O)cs1)CCO2 [Compound S1-1]
1 to 10 µM

Field entry: Cc1c(-c2ccccc2F)[nH]c2ccc(CNC(=O)c3ccc(CO)o3)cc12 [Compound S3-14]
1 to 10 µM
